- target: Steroid 17-alpha-hydroxylase/17,20 lyase (Homo sapiens, UniProt P05093)
- Sequence (P05093 whole entry): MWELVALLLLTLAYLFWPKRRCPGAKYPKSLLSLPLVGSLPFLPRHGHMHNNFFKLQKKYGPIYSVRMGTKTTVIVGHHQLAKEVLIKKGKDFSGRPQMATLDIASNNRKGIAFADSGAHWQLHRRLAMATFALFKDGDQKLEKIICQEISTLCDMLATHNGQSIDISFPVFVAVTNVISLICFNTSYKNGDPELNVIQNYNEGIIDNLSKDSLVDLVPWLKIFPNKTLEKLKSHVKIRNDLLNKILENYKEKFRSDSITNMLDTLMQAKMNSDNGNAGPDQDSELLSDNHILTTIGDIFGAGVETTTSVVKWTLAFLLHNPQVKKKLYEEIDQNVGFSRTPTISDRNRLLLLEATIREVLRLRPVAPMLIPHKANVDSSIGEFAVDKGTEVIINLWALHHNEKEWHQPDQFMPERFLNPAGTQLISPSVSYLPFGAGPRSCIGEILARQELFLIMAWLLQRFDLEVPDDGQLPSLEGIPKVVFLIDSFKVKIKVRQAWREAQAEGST
- method_description: Ability to inhibit the C17,20-lyase enzyme by 50% using 17-alpha-hydroxyprogesterone as substrate.
pIC50: −log10 of the molar value.
Where pIC50 equals or exceeds 7, the correct label is satisfied; where it does not, the label is not satisfied.

{"molecule": "C[C@]12CC[C@H](O)CC1=CC[C@@H]1[C@@H]2CC[C@]2(C)C(c3ccncc3)=CC[C@@H]12", "label_value": "not satisfied"}
{"molecule": "C[C@]12CCC(O)CC1=CCC1C2CC[C@]2(C)C(Cc3ccccn3)=CCC12 (stereo partly drawn)", "label_value": "not satisfied"}
{"molecule": "C[C@]12CCC3C(CC[C@H]4CC(=O)CC[C@]34C)C1CC=C2c1cccnc1 (stereo partly drawn)", "label_value": "satisfied"}
{"molecule": "C[C@]12CC[C@H](O)CC1=CCC1C2CC[C@@]2(C)C1CC[C@@H]2c1cccnc1 (stereo partly drawn)", "label_value": "satisfied"}
{"molecule": "C[C@]12CCC(=O)C=C1CCC1C2C(=O)C[C@]2(C)C(c3cccnc3)=CCC12 (stereo partly drawn)", "label_value": "satisfied"}
{"molecule": "C[C@]12CCC3C(CC=C4C[C@@H](O)CC[C@@]43C)C1CCC2c1ccncc1 (single isomer, unassigned)", "label_value": "satisfied"}
{"molecule": "C[C@]12CCC(Oc3c(F)c(F)c(C(F)(F)F)c(F)c3F)=CC1=CCC1C2CC[C@]2(C)C(c3cccnc3)=CCC12 (stereo partly drawn)", "label_value": "not satisfied"}

====

- target: Steroid 17-alpha-hydroxylase/17,20 lyase (Homo sapiens, UniProt P05093)
- method_description: Ability to inhibit the Steroid 17-alpha-hydroxylase/17,20 lyase enzyme by 50%.
pIC50: −log10 of the molar value.
measured_metric: pIC50

{"compound": "C[C@]12CC[C@H](O)CC1=CC[C@@H]1[C@@H]2CC[C@]2(C)C(c3ccccn3)=CC[C@@H]12", "bound_sign": "=", "endpoint_value": 6.57}
{"compound": "C[C@]12CCC(Oc3c(F)c(F)c(C(F)(F)F)c(F)c3F)=CC1=CCC1C2CC[C@]2(C)C(c3cccnc3)=CCC12 (stereo partly drawn)", "bound_sign": "<", "endpoint_value": 5.00}
{"compound": "C[C@]12CCC3C(CC=C4C[C@@H](O)CC[C@@]43C)C1CCC2c1ccncc1 (single isomer, unassigned)", "bound_sign": "=", "endpoint_value": 6.80}
{"compound": "C[C@]12CC[C@H](O)CC1=CCC1C2CC[C@@]2(C)C1CC[C@@H]2c1cccnc1 (stereo partly drawn)", "bound_sign": "=", "endpoint_value": 7.33}
{"compound": "C[C@]12CCC(O)CC1=CCC1C2CC[C@]2(C)C(Cc3ccccn3)=CCC12 (stereo partly drawn)", "bound_sign": "<", "endpoint_value": 5.00}
{"compound": "C[C@]12CC[C@H](O)CC1=CC[C@@H]1[C@@H]2CC[C@]2(C)C(c3ccncc3)=CC[C@@H]12", "bound_sign": "=", "endpoint_value": 5.40}
{"compound": "C[C@]12CCC3C(CC[C@H]4CC(=O)CC[C@]34C)C1CC=C2c1cccnc1 (stereo partly drawn)", "bound_sign": "=", "endpoint_value": 8.33}
{"compound": "C[C@]12CCC(=O)C=C1CCC1C2C(=O)C[C@]2(C)C(c3cccnc3)=CCC12 (stereo partly drawn)", "bound_sign": "=", "endpoint_value": 7.89}
